Where a name gives a salt, the structure may show the parent alone.
OBSERVED_PROPERTY: melting point

Exercise: Item under review: COc1cc2c(cc1OC)CN(C(=O)[C@H]1CCCN(CCNC(=O)c3ccc4c(c3)OCO4)C1)CC2 [Example 38] . Reported melting point?
Key: 154 to 155 °C

Exercise: Item under review: COc1cc2c(cc1OC)CN(C(=O)[C@H]1CCCN(CCC(=O)Nc3ccc4c(c3)OCO4)C1)CC2 (as salt: tartrate) [Example 6, D-tartrate] . Reported melting point?
Key: 175 to 177 °C

Exercise: Item under review: COc1ccc(C(=O)NCCN2CCCC(C(=O)N3CCc4cc(OC)c(OC)cc4C3)C2)cc1OC (racemic) (as salt: HCl) [Example 11] . Reported melting point?
Key: 199 to 202 °C

Exercise: Item under review: COc1cc2c(cc1OC)CN(C(=O)C1CCCN(CCNC(=O)c3ccc4c(c3)OCO4)C1)CC2 (racemic) (as salt: HCl) [Example 9] . Reported melting point?
Key: 182 to 185 °C

Exercise: Item under review: COc1cc(NC(=O)CCN2CCCC(C(=O)N3CCc4cc(OC)c(OC)cc4C3)C2)cc(OC)c1 (racemic) (as salt: oxalate) [Example 3] . Reported melting point?
Key: 187 to 192 °C

Exercise: Item under review: COc1cc2c(cc1OC)CN(C(=O)[C@H]1CCCN(CCC(=O)Nc3ccc4c(c3)OCO4)C1)CC2 (racemic) (as salt: fumarate) (hydrate or solvate) [Example 53] . Reported melting point?
Key: 164 to 166 °C

Exercise: Item under review: COc1cc2c(cc1OC)CN(C(=O)C1CCCN(CCNC(=O)c3ccc(F)c(F)c3)C1)CC2 (centres unmarked) (as salt: salt) [Example 29] . Reported melting point?
Key: 120 to 124 °C

Exercise: Item under review: COc1cc2c(cc1OC)CN(C(=O)C1CCN(CCC(=O)Nc3ccc4c(c3)OCO4)CC1)CC2 (as salt: HCl) [Example 19] . Reported melting point?
Key: 203 to 206 °C

Exercise: Item under review: COc1ccc(NC(=O)CCN2CCC=C(C(=O)N3CCc4cc(OC)c(OC)cc4C3)C2)cc1 [Example 23] . Reported melting point?
Key: 155 to 164 °C

Exercise: Item under review: COc1cc2c(cc1OC)CN(C(=O)C1CCCN(CCCC(=O)Nc3ccc4c(c3)OCO4)C1)CC2 (racemic) (as salt: oxalate) [Example 7] . Reported melting point?
Key: 113 to 116 °C

Exercise: Item under review: COc1ccc(C(=O)NCCN2CCCC(C(=O)N3CCc4cc(OC)c(OC)cc4C3)C2)cc1C (centres unmarked) (as salt: salt) [Example 26] . Reported melting point?
Key: 114 to 117 °C

Exercise: Item under review: COc1cc2c(cc1OC)CN(C(=O)[C@@H]1CCCN(CCNC(=O)c3ccc4c(c3)OCO4)C1)CC2 [Example 37] . Reported melting point?
Key: 150 to 151 °C

Exercise: Item under review: COc1cc2c(cc1OC)CN(C(=O)C1CCCN(CCC(=O)Nc3ccc(C)c(F)c3)C1)CC2 (centres unmarked) (as salt: HCl) [Example 16] . Reported melting point?
Key: 183 to 185 °C

Exercise: Item under review: COc1cc2c(cc1OC)CN(C(=O)C1CCCN(CCNC(=O)c3ccc(F)cc3F)C1)CC2 (centres unmarked) (as salt: salt) [Example 43] . Reported melting point?
Key: 178 to 180 °C

Exercise: Item under review: COc1cc2c(cc1OC)CN(C(=O)[C@@H]1CCCN(CCC(=O)Nc3ccc4c(c3)OCO4)C1)CC2 (as salt: tartrate) [Example 5, L-tartrate] . Reported melting point?
Key: 174 to 175 °C

Exercise: Item under review: COc1cc2c(cc1OC)CN(C(=O)C1CCCN(CCNC(=O)c3ccc4c(c3)OC(F)(F)O4)C1)CC2 (centres unmarked) (as salt: salt) [Example 31] . Reported melting point?
Key: 113 to 116 °C

Exercise: Item under review: COc1cc2c(cc1OC)CN(C(=O)C1=CCCN(CCNC(=O)c3ccc4c(c3)OCO4)C1)CC2 [Example 46] . Reported melting point?
Key: 162 to 164 °C

Exercise: Item under review: COc1cc2c(cc1OC)CN(C(=O)C1CCCN(CCNC(=O)c3ccc(OC(C)C)cc3)C1)CC2 (centres unmarked) (as salt: salt) [Example 33] . Reported melting point?
Key: 116 to 119 °C

Exercise: Item under review: COc1cc2c(cc1OC)CN(C(=O)C1CCCN(CCNC(=O)c3cccc(Br)c3)C1)CC2 (centres unmarked) (as salt: salt) [Example 41] . Reported melting point?
Key: 133 to 136 °C

Exercise: Item under review: COc1cc2c(cc1OC)C(C)(C)CN(C(=O)C1CCCN(CCC(=O)Nc3ccc4c(c3)OCO4)C1)C2 (centres unmarked) (as salt: HCl) [Example 25] . Reported melting point?
Key: 225 to 228 °C
